# TARGET_SYSTEM: T1, hIgG1 (Sigma-Aldrich reference number I5029) (human, UniProt P01857-1 1-330 = IgG part)
# T1 construct: Purified subclass, bought; also called Human IgG1; human IgG1 subclass
# T1 sequence (P01857 other isoform, or with tags, fused parts or gaps): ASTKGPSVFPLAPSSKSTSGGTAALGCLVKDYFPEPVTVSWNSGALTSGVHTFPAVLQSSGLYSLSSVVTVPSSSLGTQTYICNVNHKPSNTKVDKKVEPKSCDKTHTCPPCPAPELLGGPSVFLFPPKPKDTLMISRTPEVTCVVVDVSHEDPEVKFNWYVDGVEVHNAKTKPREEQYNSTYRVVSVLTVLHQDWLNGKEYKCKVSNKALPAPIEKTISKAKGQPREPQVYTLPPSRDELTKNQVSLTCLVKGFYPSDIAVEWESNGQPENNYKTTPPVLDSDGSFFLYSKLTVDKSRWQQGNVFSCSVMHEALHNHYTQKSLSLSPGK
# PROTOCOL_SUMMARY: SPR, hIgG1 immobilised at low density, C3 injected 16-1000 nM, global fit (Fig. 6)
pKd: −log10 of the molar value.

| BINDER | pKd |
| --- | --- |
| C3 binder (designed binder, Sac7d variant made with a His-tag in E. coli; monomeric by gel filtration; Used free, biotinylated on a streptavidin chip, labelled with AlexaFluor 680, or NHS-coupled to agarose, as said under assay; also called clone C3; not shown: RGS-(His)6 tag from vector pFP1001 (pQE30 derivative)) SVKVKFLLNGEEKEVDTSKIRDVCRQGKNVKFLYNDNGKYGAGNVDEKDAPKELLDMLARAEREKK | 7.03 |
